// data source = patent US20240360178A1

- MEASURED TARGET: human PD-1 (Jurkat-PD-1 cells) / PE-labeled human PD-L1-Ig (Homo sapiens, UniProt Q15116)
- Construct: expressed in transfected cells; host or cells: Jurkat cell line over-expressing human PD-1
- Sequence (Q15116 25-288): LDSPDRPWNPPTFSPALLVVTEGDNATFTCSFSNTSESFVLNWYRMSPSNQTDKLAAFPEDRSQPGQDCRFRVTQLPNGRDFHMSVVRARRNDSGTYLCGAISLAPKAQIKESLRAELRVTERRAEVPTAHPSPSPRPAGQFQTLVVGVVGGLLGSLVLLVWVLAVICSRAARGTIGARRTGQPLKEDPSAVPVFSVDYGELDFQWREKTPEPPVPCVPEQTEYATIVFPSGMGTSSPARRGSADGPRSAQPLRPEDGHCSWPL
- TEST SUMMARY: Jurkat-PD-1 Cell Binding High-Content Screening Assay (CBA); Jurkat hPD1-PDL1 assay
- SETUP CONDITIONS: Jurkat cell line over-expressing human PD-1; PE-labeled PD-L1-Ig 20 nM final; compound incubated 2 hours at 37° C.; read-out: Jurkat HPD1-PDL1 IC50
Positions of bridges follow the written chain, without caps; N, C: chain ends. Non-standard residues stand in square brackets, D forms with d. Residues, ends and D or L forms follow the SMILES beside them. Bip = N[C@@H](Cc1ccc(-c2ccccc2)cc1)C(=O)O; Dab = NCC[C@H](N)C(=O)O; Dap = NC[C@H](N)C(=O)O

{"COMPOUND": "CC(C)C[C@@H]1NC(=O)[C@H](Cc2c[nH]c3ccccc23)NC(=O)[C@H](CC(=O)O)NC(=O)[C@H](Cc2ccc(O)cc2)NC(=O)[C@H](Cc2ccccc2)NC(=O)CSC[C@@H](C(=O)NCC(N)=O)NC(=O)[C@H]([C@@H](C)O)NC(=O)[C@H](C(C)C)NC(=O)[C@H](CC(C)C)NC(=O)[C@H](CCN)NC(=O)[C@H]2CCCN2C(=O)[C@H](CN)NC(=O)[C@H](C(C)C)NC(=O)[C@H](Cc2ccc(-c3ccccc3)cc2)NC1=O [Example 1407] ({CH2CO}-FYDWL[Bip]V[Dap][dP][Dab]LVTCG-NH2; thioether N-14)", "IC50, nM": 280}
